Assay: Cmax in C57BL/6 mouse at 10 mg/kg administered via oral gavage and measured for 24 hrs by LC-MS/MS analysis
Type: ADME, organism-based
Set-up: dose 10 mg/kg, time 24 hrs, route po
Conditions: in vivo
Property Name: Cmax (µM)

[1] Nc1ncc(-c2cn(C34CC(C3)C4)c([C@@H](O)C(F)(F)F)n2)cc1OC(F)(F)F
[2] Nc1ncc(-c2cn(C34CC(F)(C3)C4)c([C@@H](O)C(F)(F)F)n2)cc1OC(F)(F)F
Prompt line: Rank 1 against 2 by their Cmax values and give the higher one. Return value: the label identifying the chosen record.
Response line: 2
(2: 6.4 µM, 1: 2 µM)

====

Experiment: Half life in C57BL/6 mouse at 0.3 mg/kg, iv administered via tail vein and measured for 24 hrs by LC-MS/MS analysis
Assay type: ADME, organism-based
Settings: in vivo
Property Name: half-life (h)

[I] Nc1ncc(-c2cn(C34CC(F)(C3)C4)c([C@@H](O)C(F)(F)F)n2)cc1OC(F)(F)F
[II] Nc1ncc(-c2cn(C34CC(C3)C4)c([C@@H](O)C(F)(F)F)n2)cc1OC(F)(F)F
Prompt line: Which numeric half-life is bigger, that of I or that of II ? State the label of the item chosen.
Response line: I
(I: 13 h, II: 3.5 h)

====

Assay: Oral bioavailability in Beagle dog at 1 mg/kg administered via oral gavage and measured for 24 hrs by LC-MS/MS analysis
Assay type: ADME, organism-based, Canis lupus familiaris
Conditions: in vivo
Property Name: bioavailability (%)

Nc1ncc(-c2cn(C34CC(N5CCOCC5)(C3)C4)c(C3CC3)n2)cc1OC(F)(F)F    77
CC(C)c1nc(-c2cnc(N)c(OC(F)(F)F)c2)cn1C12CC(N3CCOCC3)(C1)C2    80

====

Test: Protein binding in mouse brain homogenate incubated for 5 hrs by UPLC-MS/MS analysis
Assay type: ADME, tissue-based
Settings: read-out: PB (converted)
Property Name: fraction unbound at 5 h
// no unit string in output, number only

Prompt line: Quick check: fraction unbound at 5 h of `Nc1ncc(-c2cn(C34CC(F)(C3)C4)c([C@@H](O)C(F)(F)F)n2)cc1OC(F)(F)F` ?
Response line: 0.039

====

Assay: Bioavailability in Beagle dog at 1 mg/kg, po or 0.3 mg/kg, iv measured for 24 hrs by LC-MS/MS analysis
Assay type: ADME, organism-based, Canis lupus familiaris
Conditions: in vivo
Property Name: bioavailability

Prompt line: Can you share its bioavailability? I mean this compound: `Nc1ncc(-c2cn(C34CC(F)(C3)C4)c([C@@H](O)C(F)(F)F)n2)cc1OC(F)(F)F`
Response line: > 100%

====

Experiment: Metabolic stability in human liver microsomes assessed as intrinsic clearance at 1 uM in presence of NADPH regenerating system measured for 45 mins by LC-MS/MS analysis
Assay type: ADME, Microsome
Conditions: read-out: CLH
Property Name: CLint scaled at 1 µM (mL/min/kg)

[I] Nc1ncc(-c2cn(C34CC(C3)C4)c([C@@H](O)C(F)(F)F)n2)cc1OC(F)(F)F
[II] Nc1ncc(-c2cn(C34CC(F)(C3)C4)c([C@@H](O)C(F)(F)F)n2)cc1OC(F)(F)F
Prompt line: Problem: Given the entries I and II , determine which has the lower reported CLint scaled at 1 µM. Label of pick, please.
Response line: II

[I] Nc1ncc(-c2cn(C34CC(N5CCOCC5)(C3)C4)c(C3CC3)n2)cc1C(F)(F)F
[II] CC(C)C(O)c1nc(-c2cnc(N)c(OC(F)(F)F)c2)cn1C12CC(C1)C2 (stereo not given)
[III] CC(C)c1nc(-c2cnc(N)c(C(F)(F)F)c2)cn1C1CCC1
Prompt line: Arrange the 3 molecules by rising CLint scaled at 1 µM, starting with the smallest. Form entry: ranked labels (order as requested).
Response line: I, II, III
(I: 5 mL/min/kg, II: 35 mL/min/kg, III: 233 mL/min/kg)

====

Test: Metabolic stability in rat hepatocytes assessed as intrinsic clearance at 2 uM measured for 120 mins by LC-MS analysis
Assay type: ADME, cell-based, Hepatocyte
Settings: read-out: CLH
Property Name: CLint scaled at 2 µM (mL/min/kg)
The response must be a number in mL/min/kg with no trailing unit.

Prompt line: State the recorded CLint scaled at 2 µM for this entry: `Nc1ncc(-c2cn(C34CC(F)(C3)C4)c([C@@H](O)C(F)(F)F)n2)cc1OC(F)(F)F`
Response line: 4.4

====

Experiment: Thermodynamic aqueous solubility of compound in FaSSGF at pH 1.6 incubated for 1 hr under shaking condition by LC-MS/MS analysis
Assay type: physicochemical
Details: read-out: Therm_solubility
Property Name: solubility thermodynamic at 1 h (mM)
Numeric answer only, unit mM assumed.

Prompt line: Record request: solubility thermodynamic at 1 h value, item `Nc1ncc(-c2cn(C34CC(F)(C3)C4)c([C@@H](O)C(F)(F)F)n2)cc1OC(F)(F)F`
Response line: 20.6

====

Test: AUClast in C57BL/6 mouse at 10 mg/kg administered via oral gavage and measured for 24 hrs by LC-MS/MS analysis
Assay type: ADME, organism-based
Design: time 24 hrs, dose 10 mg/kg, route po
Conditions: in vivo
Property Name: AUClast (µM·h)

[P] Nc1ncc(-c2cn(C34CC(C3)C4)c([C@@H](O)C(F)(F)F)n2)cc1OC(F)(F)F
[Q] Nc1ncc(-c2cn(C34CC(F)(C3)C4)c([C@@H](O)C(F)(F)F)n2)cc1OC(F)(F)F
Prompt line: P or Q : whose AUClast is greater? State the label of the item chosen.
Response line: Q

====

Assay: Metabolic stability in monkey liver microsomes assessed as intrinsic clearance at 1 uM in presence of NADPH regenerating system measured for 45 mins by LC-MS/MS analysis
Format: ADME, Macaca mulatta, Microsome
Details: rhesus monkey, read-out: CLH
Property Name: CLint scaled at 1 µM (mL/min/kg)
Express your answer in mL/min/kg, writing the number without its unit.

Prompt line: Which CLint scaled at 1 µM reading was recorded for the compound `Nc1ncc(-c2cn(C34CC(F)(C3)C4)c([C@@H](O)C(F)(F)F)n2)cc1OC(F)(F)F` ?
Response line: 11

====

Test: Volume of distribution at steady state in C57BL/6 mouse at 0.3 mg/kg, iv administered via tail vein and measured for 24 hrs by LC-MS/MS analysis
Type: ADME, organism-based
Settings: in vivo, read-out: Vdss
Property Name: Vd (L/kg)

Nc1ncc(-c2cn(C34CC(F)(C3)C4)c([C@@H](O)C(F)(F)F)n2)cc1OC(F)(F)F    4.5
Nc1ncc(-c2cn(C34CC(C3)C4)c([C@@H](O)C(F)(F)F)n2)cc1OC(F)(F)F    4.6

====

Test: Half life in C57BL/6 mouse at 0.3 mg/kg, iv measured for 24 hrs by LC-MS/MS analysis
Assay type: ADME, organism-based
Settings: in vivo
Property Name: half-life (min)

Nc1ncc(-c2cn(C34CC(N5CCOCC5)(C3)C4)c(C3CC3)n2)cc1C(F)(F)F    228
Nc1ncc(-c2cn(C34CC(N5CCOCC5)(C3)C4)c(C3CC3)n2)cc1OC(F)(F)F    210
CC(C)c1nc(-c2cnc(N)c(OC(F)(F)F)c2)cn1C12CC(N3CCOCC3)(C1)C2    210
CC(C)c1nc(-c2cnc(N)c(C(F)(F)F)c2)cn1C12CC(N3CCOCC3)(C1)C2    198

====

Assay: Metabolic stability in rat liver microsomes assessed as intrinsic clearance at 1 uM in presence of NADPH regenerating system measured for 45 mins by LC-MS/MS analysis
Format: ADME, Microsome
Details: read-out: CLH
Property Name: CLint scaled at 1 µM (mL/min/kg)

Consider the reported CLint scaled at 1 µM for these compounds:
CC(C)c1nc(-c2cnc(N)c(OC(F)(F)F)c2)cn1C12CC(N3CCOCC3)(C1)C2    6
Nc1ncc(-c2cn(C34CC(N5CCOCC5)(C3)C4)c(C3CC3)n2)cc1C(F)(F)F    10
Nc1ncc(-c2cn(C34CC(C3)C4)c([C@@H](O)C(F)(F)F)n2)cc1OC(F)(F)F    32
CC(C)(C)Cc1nc(-c2cnc(N)c(C(F)(F)F)c2)cn1C12CC(N3CCOCC3)(C1)C2    43
Nc1ncc(-c2cn(C34CC(N5CCOCC5)(C3)C4)c(CC3CC3)n2)cc1C(F)(F)F    5

[I] Nc1ncc(-c2cn(C34CC(N5CCOCC5)(C3)C4)c(C3CC3)n2)cc1OC(F)(F)F
[II] CC(C)[C@H](O)c1nc(-c2cnc(N)c(OC(F)(F)F)c2)cn1C12CC(N3CCOCC3)(C1)C2
Prompt line: Which value of CLint scaled at 1 µM is greater, the one for I or the one for II ? State your choice using its label.
Response line: I

====

Experiment: Permeability in wild type MDCK cells across apical to basolateral side at 5 uM incubated for 90 mins by LC-MS/MS analysis
Type: ADME, cell-based, Canis lupus familiaris
Conditions: dog, read-out: permeability
Property Name: Papp A→B at 1.5 h, 5 µM (×10⁻⁶ cm/s)
Kindly answer with a numeric value in ×10⁻⁶ cm/s, unit omitted.

Prompt line: Reported Papp A→B at 1.5 h, 5 µM, compound `Nc1ncc(-c2cn(C34CC(F)(C3)C4)c([C@@H](O)C(F)(F)F)n2)cc1OC(F)(F)F` : ____
Response line: 38
